Source of measurements: patent US11261201B2

Record form. Attribute: MIC. Fill in for each entry.
system: E. coli; assay: Gram negative MIC protocol (OD600, LB, 24 h); details: Escherichia coli, read-out: MIC E. coli delta-TolC LB Media, E. coli delta-TolC, LB media, OD600
Counter-ions that a name gives are not always drawn.
Field: numeric (µM). Do not append units.

Exam item: What value of measured MIC is listed for CC(CC1CCCCC1)NCc1ccccc1CS(=O)(=O)N(C)C[C@H](O)CO (stereo partly shown) [B438] ?
Marked response: 7

Exam item: Follow-up item: CC(CC1CCCCC1)NCc1ccccc1SCC1CN(C)C(=O)O1 (stereo not shown) [B407]
Marked response: 7

Exam item: Follow-up item: CC(CC1CCCCC1)N1Cc2ccccc2CC1=O (stereo not shown) [B412]
Marked response: 55

Exam item: Follow-up item: CC(CC1CCCCC1)NCc1cccc2ccn(CC(=O)O)c12 (stereo not shown) [B436, hydrochloride]
Marked response: 91

Exam item: Follow-up item: CC(CC1CCCCC1)NCc1ccccc1OCC1CNC(=O)C1 (stereo not shown) [B403]
Marked response: 7

Exam item: Follow-up item: CC(CC1CCCC1)NCc1ccccc1 (stereo not shown) [B38]
Marked response: 90

Exam item: Follow-up item: C[C@@H](CC1CCCCC1)NCc1ccccc1 [B94]
Marked response: 7

Exam item: Follow-up item: CC(CC1CCCCC1)NCc1ccccc1OCc1ccccc1Oc1ccccc1 (stereo not shown) [B463]
Marked response: 4

Exam item: Follow-up item: CCCC(CC1CCCCC1)NCc1ccccc1 (stereo not shown) [B165, N-benzyl-1-cyclohexylpentan-2-amine]
Marked response: 60

Exam item: Follow-up item: C1=C(CCNCc2ccccc2)CCCCC1 [B71]
Marked response: 90

Exam item: Follow-up item: CC(CC1CCCCC1)NCc1ccccc1CS(=O)(=O)N[C@H]1C[C@@H](C(=O)O)C1 (stereo partly shown) [B453]
Marked response: 20

Exam item: Follow-up item: CC(CC1CCCCC1)NCc1ccccc1CS(=O)(=O)N[C@H](C)C(=O)O (stereo partly shown) [B455]
Marked response: 91

Exam item: Follow-up item: Cc1ccccc1CNCCC1=CCCCC1 [B13]
Marked response: 55

Exam item: Follow-up item: c1ccc(CNCCC2CC3CCC2C3)cc1 (stereo not shown) [B146]
Marked response: 90

Exam item: Follow-up item: C1=C(CCNCc2ccccc2)CCCC1 [B1]
Marked response: 46

Exam item: Follow-up item: CC(CC1CCCCC1)NCc1ccccc1CS(=O)(=O)NCC1CCCO1 (stereo not shown) [B433]
Marked response: 3

Exam item: Follow-up item: CC(CC1CCCCC1)NCc1ccccc1CS(=O)(=O)N(C)C (stereo not shown) [B437]
Marked response: 4

Exam item: Follow-up item: O=C1Cc2ccccc2CN1CCC1CCCCCC1 [B422]
Marked response: 150

Exam item: Follow-up item: CC1=C(C)CC(CC(C)NCc2ccccc2)CC1 (stereo not shown) [B162]
Marked response: 300

Exam item: Follow-up item: c1ccc(CNCCC2CCCCCC2)cc1 [B102]
Marked response: 90
